# assay.summary: inhibitors of TNFa-induced NFkB p65 translocation, primary screen, imaging, HUVEC, MLSMR starter and 10KST1 sets (AID 438);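 also: compound added about 3h40 before a 20 min TNFalpha stimulation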
# condition.info: HUVEC TNFa-induced p65 nuclear translocation; measured here: nuclei count (cytotoxicity indicator), at 2.08 µM
# maps each entry to its cell count

compound="Cc1nc2ccccc2c2oc(C(=O)NCC3COc4ccccc4O3)cc12 (centres undefined)" reported_result=532

Prompt: Query (compound): O=C(NCC1CCCO1)C1CCN(S(=O)(=O)c2cccc3cccnc23)CC1 (centres undefined) ; field requested: cell count
Response: 651

Prompt: What value of cell count has been recorded for this entry: `COc1ccc(-c2noc(-c3ccccc3C(=O)Nc3cccnc3)n2)cc1OC`
Response: 395

Prompt: Dear colleague, I am looking for the recorded cell count of the following compound: `COc1ccc(CCNS(=O)(=O)c2ccc3oc(C(=O)O)c(C)c3c2)cc1OC`
Response: 612
